molecular target: Cytochrome P450 1A2 (Homo sapiens); assay: p450-cyp1a2 (AID 410); details: recombinant CYP1A2, luciferin-ME demethylation, luminescence; series mostly up to 25.6 µM; further: potency means the concentration at half of the fitted maximal effect
Records with an inconclusive call do not appear. Calls of active or inactive are those of the source. The call rests on the fitted dose curve.
MEASURED_QUANTITY: Potency

CC(=O)N(O)CCCCCNC(=O)CCC(=O)N(O)CCCCCNC(=O)CCC(=O)N(O)CCCCCN ... inactive
Oc1cc(O)c2c(c1)O[C@H](c1ccc(O)c(O)c1)[C@H](O)C2 ... inactive
OC(CCN1CCCCC1)(c1ccccc1)c1ccccc1 ... inactive
CNCC[C@@H](Oc1ccccc1C)c1ccccc1 ... 15.8 µM (active)
N[C@@H](Cc1cnc[nH]1)C(=O)O ... inactive
CC[N+](CC)(CCNC(=O)C(=O)NCC[N+](CC)(CC)Cc1ccccc1Cl)Cc1ccccc1Cl ... inactive
CN(C(=O)CN(CCO)CC(=O)N(C)C(C)(C)Cc1ccccc1)C(C)(C)Cc1ccccc1 ... inactive
COc1c(C)c2c(c(O)c1C/C=C(\C)CCC(=O)O)C(=O)OC2 ... 31.6 µM (active)

Please look at the following compound next.
In: State the recorded Potency for this entry: CN1CCN(C(c2ccccc2)c2ccccc2)CC1
Out: inactive

====

tested on: P94_40; test: qHTS profiling for inhibitors of Plasmodium falciparum proliferation (AID 504749); further: nearly all actives have a fitted effect of over 60% in size; conditions: P. falciparum in erythrocytes, SYBR Green DNA, 72 h; series mostly up to 28.7 µM
Inconclusive results are not listed. Activity calls are given as the source filed them. The call rests on the fitted dose curve; in most records, active means well fitted inhibition curve with a large enough effect; inconclusive means small, poorly fitted or top-dose-only effect; inactive means flat fitted curve, though single readings scatter.
I would appreciate it if you answered using one of these outcomes: 1.0 (active), 0.0 (inactive)

In: Given CCCCCCCCCCCCCCCCCC(=O)OCC(O)CO (stereo not drawn) , state the outcome it received in this test.
Out: 0.0

In: Given CCCN1CCCC[C@H]1C(=O)Nc1c(C)cccc1C , state the outcome it received in this test.
Out: 0.0

In: Given CN1CCN(CCCN2c3ccccc3Sc3ccc(S(=O)(=O)N(C)C)cc32)CC1 , state the outcome it received in this test.
Out: 1.0

In: Given CCN1CCCC1=O , state the outcome it received in this test.
Out: 0.0

In: Given CCCn1c(=O)[nH]c(=O)c2[nH]cnc21 , state the outcome it received in this test.
Out: 0.0

In: Given CN1CCC(=C2c3ccccc3Sc3ccccc32)CC1 , state the outcome it received in this test.
Out: 1.0

In: Given OCc1ccccc1O , state the outcome it received in this test.
Out: 0.0

In: Given CC(O)(P(=O)(O)O)P(=O)(O)O , state the outcome it received in this test.
Out: 0.0

In: Given COc1c(C)c2c(c(O)c1C/C=C(\C)CCC(=O)O)C(=O)OC2 , state the outcome it received in this test.
Out: 1.0

In: Given CCCCC(CC)CN=C(N)NC(N)=NCCCCCCN=C(N)NC(N)=NCC(CC)CCCC (stereo not drawn) , state the outcome it received in this test.
Out: 1.0

In: Given Cc1c(N(C)CS(=O)(=O)O)c(=O)n(-c2ccccc2)n1C , state the outcome it received in this test.
Out: 0.0

In: Given O=C(O)c1cc2cc(Cc3cccnc3)ccc2o1 , state the outcome it received in this test.
Out: 0.0

In: Given C[C@]12CC[C@@H]3c4ccc(O)cc4CC[C@H]3[C@@H]1CC[C@@H]2O , state the outcome it received in this test.
Out: 0.0

====

assay: qHTS of pediatric cancer cell lines to identify multiple opportunities for drug repurposing: Primary screen for TC32 cells (AID 1347089); conditions: TC32 Ewing sarcoma viability, CellTiter-Glo luminescence, 48 h; series mostly up to 45.8 µM; further: nearly all actives have a fitted effect of over 60% in size
Results filed as inconclusive are left out. Active and inactive are the calls of the source. Calls follow the shape of the dose curve; as a rule, active = well fitted cell-killing curve with a large enough effect; inconclusive = small, poorly fitted or top-dose-only effect; inactive = flat fitted curve, though single readings scatter.
I would appreciate it if you answered using one of these outcomes: active, inactive

In: Given CC(=O)[C@H]1CC[C@H]2[C@@H]3C[C@H](C)C4=CC(=O)CC[C@]4(C)[C@H]3[C@@H](O)C[C@]12C , state the outcome it received in this test.
Out: inactive

In: Given CN1CCN(CCCN2c3ccccc3Sc3ccc(S(=O)(=O)N(C)C)cc32)CC1 , state the outcome it received in this test.
Out: inactive

In: Given CC(=O)OCC(=O)[C@@]12N=C(C)O[C@@H]1C[C@H]1[C@@H]3CCC4=CC(=O)C=C[C@]4(C)[C@H]3[C@@H](O)C[C@@]12C , state the outcome it received in this test.
Out: inactive

In: Given Nc1ccn([C@@H]2O[C@H](CO)[C@@H](O)C2(F)F)c(=O)n1 , state the outcome it received in this test.
Out: active

In: Given CCCCCC=CCC=CCCCCCCCC(=O)OCC , state the outcome it received in this test.
Out: inactive

In: Given Cc1c(N(C)CS(=O)(=O)O)c(=O)n(-c2ccccc2)n1C , state the outcome it received in this test.
Out: inactive

In: Given Cc1ccc(Nc2c(F)cccc2Cl)c(CC(=O)O)c1 , state the outcome it received in this test.
Out: inactive

In: Given CCC(C(=O)OCCN(CC)CC)c1ccccc1 (centres undefined) , state the outcome it received in this test.
Out: inactive

In: Given CN1[C@@H]2CC[C@H]1CC(OC(=O)c1c[nH]c3ccccc13)C2 (some centres undefined) , state the outcome it received in this test.
Out: inactive

In: Given CC(=O)Nc1c(I)cc(I)c(C(=O)O)c1I , state the outcome it received in this test.
Out: inactive

In: Given CC(C)(C)NC(=O)[C@@H]1CN(Cc2cccnc2)CCN1C[C@@H](O)C[C@@H](Cc1ccccc1)C(=O)N[C@H]1c2ccccc2C[C@H]1O , state the outcome it received in this test.
Out: inactive

In: Given CC(=O)OCC(=O)[C@@]12OC(C)(C)O[C@@H]1C[C@H]1[C@@H]3C[C@H](F)C4=CC(=O)C=C[C@]4(C)[C@@]3(F)[C@@H](O)C[C@@]12C , state the outcome it received in this test.
Out: inactive

In: Given COc1cccc2c1C(=O)c1c(O)c3c(c(O)c1C2=O)C[C@@](O)(C(C)=O)C[C@@H]3O[C@H]1C[C@H](N)[C@H](O)[C@H](C)O1 , state the outcome it received in this test.
Out: active

In: Given COc1cc(C(=S)N2CCOCC2)cc(OC)c1OC , state the outcome it received in this test.
Out: inactive

In: Given CCCCc1nc(Cl)c(CO)n1Cc1ccc(-c2ccccc2-c2nn[nH]n2)cc1 , state the outcome it received in this test.
Out: inactive

In: Given CCCCCCCCCCCCCCCCOP(=O)([O-])OCC[N+](C)(C)C , state the outcome it received in this test.
Out: inactive

In: Given CCCCCCc1ccc(O)cc1O , state the outcome it received in this test.
Out: inactive

In: Given CCCCC(=O)O[C@]1(C(=O)CO)CC[C@H]2[C@@H]3CCC4=CC(=O)CC[C@]4(C)[C@H]3[C@@H](O)C[C@@]21C , state the outcome it received in this test.
Out: inactive

In: Given CCCOC(C(=O)OC1CCN(C)CC1)(c1ccccc1)c1ccccc1 , state the outcome it received in this test.
Out: inactive

====

tested on: CP265; assay: qHTS profiling for inhibitors of Plasmodium falciparum proliferation (AID 504749); further: nearly all actives have a fitted effect of over 60% in size; details: P. falciparum in erythrocytes, SYBR Green DNA, 72 h; series mostly up to 28.7 µM
Inconclusive results are not listed. The source made the active and inactive calls. Calls come from the whole dose curve; as a rule, active = well fitted inhibition curve with a large enough effect; inconclusive = small, poorly fitted or top-dose-only effect; inactive = flat fitted curve, though single readings scatter.
I would appreciate it if you answered using one of these outcomes: yes (active), no (inactive)

In: Given NC(CO)(CO)CO , state the outcome it received in this test.
Out: no

In: Given OC(CCN1CCCCC1)(c1ccccc1)c1ccccc1 , state the outcome it received in this test.
Out: yes

In: Given CC(=O)c1ccc2c(c1)N(CCCN1CCC(CCO)CC1)c1ccccc1S2 , state the outcome it received in this test.
Out: no

In: Given O=C1OC(c2ccc(O)cc2)(c2ccc(O)cc2)c2ccccc21 , state the outcome it received in this test.
Out: no

In: Given CN(C)/N=N/c1nc[nH]c1C(N)=O , state the outcome it received in this test.
Out: no

In: Given CC(=O)OCC(=O)NCCCOc1cccc(CN2CCCCC2)c1 , state the outcome it received in this test.
Out: no

In: Given Oc1ccc(Cl)c2cccnc12 , state the outcome it received in this test.
Out: no

In: Given CC(C)(C)CC(C)(C)c1ccc(O)c(Cc2ccc(Cl)cc2Cl)c1 , state the outcome it received in this test.
Out: yes

In: Given Cc1ccc(O)c2ncccc12 , state the outcome it received in this test.
Out: no

In: Given CC/C(=C(/CC)c1ccc(O)cc1)c1ccc(O)cc1 , state the outcome it received in this test.
Out: no

In: Given CCCCOc1cc(C(=O)NCCN(CC)CC)c2ccccc2n1 , state the outcome it received in this test.
Out: no

In: Given NCCc1ccn[nH]1 , state the outcome it received in this test.
Out: no

In: Given CN1C(CCl)Nc2cc(Cl)c(S(N)(=O)=O)cc2S1(=O)=O (stereo not drawn) , state the outcome it received in this test.
Out: no
